# Protocol notes: Plasma concentration in BALB/c mouse xenografted with human ACHN cells at 5 mg administered via pellet measured after 54 days of tumor implantation
# Format: ADME, organism-based
Reported endpoint: concentration at 1296 h (nM)
Express it in nM; write the number only.

For C=CCc1cccc(/C=N/NC(=O)CN2CCN(Cc3ccccc3)CC2)c1O [PAC-1] the molecule record lists concentration at 1296 h as 4.4

* * *

# Measurement target: Caspase-3 (Homo sapiens, UniProt P42574, D179A)
# Sequence (P42574 29-175 limits assumed): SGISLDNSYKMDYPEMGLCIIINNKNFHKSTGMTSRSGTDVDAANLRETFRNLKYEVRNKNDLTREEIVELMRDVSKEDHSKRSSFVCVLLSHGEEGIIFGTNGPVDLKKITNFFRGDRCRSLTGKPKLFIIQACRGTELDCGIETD
# Sequence (P42574 176-277 D179A limits assumed): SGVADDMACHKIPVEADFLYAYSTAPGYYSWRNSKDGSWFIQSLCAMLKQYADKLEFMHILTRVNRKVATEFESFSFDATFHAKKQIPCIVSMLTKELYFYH
# Protocol notes: Activation of N-terminal His6-tagged recombinant procaspase-3 D179A mutant expressed in Escherichia coli assessed as hydrolysis of acetyl-DEVD-p-nitroanilide after 2 hrs by SDS-PAGE
# Experimental setup: in the assay text read “by spectrophotometry” for “by SDS-PAGE”
Reported endpoint: EC50 (µM)
Express it in µM; write the number only.

For `C=CCc1cccc(/C=N/NC(=O)CN2CCN(Cc3ccccc3)CC2)c1O` the compound record lists EC50 as 131
